Reference source: patent US5306824A

systemUnderTest: cathepsin G (cat G) (Homo sapiens)
Sequence (P08311 21-255): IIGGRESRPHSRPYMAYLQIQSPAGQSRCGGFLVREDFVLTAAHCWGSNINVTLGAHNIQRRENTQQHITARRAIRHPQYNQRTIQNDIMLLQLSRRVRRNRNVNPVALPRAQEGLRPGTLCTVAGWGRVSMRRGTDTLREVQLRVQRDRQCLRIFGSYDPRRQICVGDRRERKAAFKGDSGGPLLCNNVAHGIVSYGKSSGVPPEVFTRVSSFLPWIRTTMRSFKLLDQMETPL
testSummary: Inactivation of cathepsin G by biotin-isocoumarins (incubation method)
Type: biochemical
studyConditions: inhibitor 75-400 μM; pH 7.5, 25° C.; NI = no inhibition after 10 min of incubation; read-out: kobs/[I] Cat. G
Kindly supply the reported kinact/KI values for the records listed here.
Dear colleague, please return just the value in M⁻¹ s⁻¹, with no unit written.

[Q] Notebook: pull reported kinact/KI for cathepsin G (cat G) (Homo sapiens), entry `CCOc1oc(=O)c2cc(NC(=O)CCCCCNC(=O)CCCC[C@@H]3SC[C@@H]4NC(=O)N[C@@H]43)ccc2c1Cl`
[A] 59

[Q] Could you share what kinact/KI was measured for COc1oc(=O)c2cc(NC(=O)CCCCCNC(=O)CCCCCNC(=O)CCCCC3SCC4NC(=O)NC43)ccc2c1Cl (stereo not shown) , tested on cathepsin G (cat G) (Homo sapiens)?
[A] 2.2

[Q] Could you share what kinact/KI was measured for `CCCOc1oc(=O)c2cc(NC(=O)CCCC[C@@H]3SC[C@@H]4NC(=O)N[C@@H]43)ccc2c1Cl` , tested on cathepsin G (cat G) (Homo sapiens)?
[A] 6.7

[Q] Lab note: need kinact/KI for `CCCOc1oc(=O)c2cc(NC(=O)CCCCCNC(=O)CCCC[C@@H]3SC[C@@H]4NC(=O)N[C@@H]43)ccc2c1Cl` on cathepsin G (cat G) (Homo sapiens), anyone have it?
[A] 3.3

* * *

systemUnderTest: chymotrypsin (Bos taurus, UniProt P00766)
testSummary: Inactivation of chymotrypsin by biotin-isocoumarins (incubation method)
Type: biochemical, bovine
studyConditions: pH 7.5, inhibitor 20-400 μM; 0.1 M Hepes, 0.5 M NaCl, pH 7.5, 5-10% Me2SO, 25° C.; two values given for some compounds; read-out: kobs/[I] Chymotrypsin
Give measured kinact/KI for each item. Keep answers brief.
Answer as a quantity: numeral, then unit.

[Q] // lookup kinact/KI for CCOc1oc(=O)c2cc(NC(=O)CCCCCNC(=O)CCCC[C@@H]3SC[C@@H]4NC(=O)N[C@@H]43)ccc2c1Cl [Compound 5]
[A] 260 M⁻¹ s⁻¹

[Q] Value lookup for kinact/KI; key = CCCOc1oc(=O)c2cc(NC(=O)CCCCCNC(=O)CCCC[C@@H]3SC[C@@H]4NC(=O)N[C@@H]43)ccc2c1Cl [Compound 4]
[A] 260 M⁻¹ s⁻¹

[Q] For CCCOc1oc(=O)c2cc(NC(=O)CCCC[C@@H]3SC[C@@H]4NC(=O)N[C@@H]43)ccc2c1Cl [Compound 2] , what is its reported kinact/KI?
[A] 65 M⁻¹ s⁻¹

[Q] # query: kinact/KI of entry O=C(CCCC[C@@H]1SC[C@@H]2NC(=O)N[C@@H]21)Nc1ccc2c(Cl)c(OCCc3ccccc3)oc(=O)c2c1 [Compound 1]
[A] 330 M⁻¹ s⁻¹
